Test system: HCC-2998 colon
Assay: NCI tumour cell line growth inhibition, 48 h
measured_property: TGI

Q: Name the reported TGI value associated with the compound Cc1nc2c(n1C(C)(C)C)C(=O)c1ccccc1C2=O
Ans: > 100 µM

Q: Name the reported TGI value associated with the compound COc1ccc(S(=O)(=O)O)cc1-n1nc(C(=O)Nc2ccccc2)n[n+]1-c1cc(S(=O)(=O)[O-])ccc1OC
Ans: > 100 µM

Q: Name the reported TGI value associated with the compound Cn1ccn2c3nc4ccccc4nc3c(=O)c(C#N)c12
Ans: > 100 µM

Q: Name the reported TGI value associated with the compound CCOC(=O)c1cc(C(=O)c2ccccc2)n2nc(-c3ccc(Cl)cc3)ccc12
Ans: 51 µM

Q: Name the reported TGI value associated with the compound COC(=O)/C=C(\C)C(=O)N(C)c1ccccc1I
Ans: > 100 µM

Q: Name the reported TGI value associated with the compound COC1=C(N=[N+]=[N-])C(=O)c2ncccc2C1=O
Ans: 31 µM

Q: Name the reported TGI value associated with the compound COC(=O)c1sc(C(=O)OC)c2c1CSC2
Ans: > 100 µM

Q: Name the reported TGI value associated with the compound CCCCCCCCCCN(CCCCCCCCCC)CC(=O)c1ccc2cc(Br)c3ccccc3c2c1
Ans: 3.16 µM

Q: Name the reported TGI value associated with the compound CN(C)c1nc(NC23CC4CC(CC(C4)C2)C3)nc(N(C)C)n1
Ans: 97.1 µM

Q: Name the reported TGI value associated with the compound O=C1/C(=C\c2cccc(Oc3ccccc3)c2)S(=O)(=O)C(c2ccccc2)N1c1ccccc1Cl (centres undefined)
Ans: > 100 µM

Q: Name the reported TGI value associated with the compound C=CC1ON(Cc2ccccc2)CCc2cc(OC)c(OC)cc21 (centres undefined)
Ans: > 100 µM

Q: Name the reported TGI value associated with the compound O=C(Nc1c[nH]c(=O)[nH]c1=O)C(Cl)Cl
Ans: > 100 µM

Q: Name the reported TGI value associated with the compound Cc1ccsc1/C=N/Nc1cc(C)c2cccc(C)c2n1
Ans: > 100 µM

Q: Name the reported TGI value associated with the compound COC1CC2C=C(C)/C=C/C=C/C(=O)NC(c3ccccc3)C/C=C/CCC(O)CC(=O)C2=C1O (centres undefined)
Ans: 1.94 µM

* * *

Tested on: SF-539 CNS
Assay: NCI tumour cell line growth inhibition, 48 h
Answer each item with its documented TGI.
Field format: number, assumed µM, no unit text.

Q: Name the reported TGI value associated with the compound NC(=O)c1cc(Br)cc(C2CCCCC2)c1O
Ans: 30.2

Q: Name the reported TGI value associated with the compound CCCCCC(=O)N[C@@H](c1ccccc1)C(O)C(=O)OC1C[C@@]2(O)C(OC(=O)c3ccccc3)C3[C@](C)(C(=O)[C@H](O)C(=C1C)C2(C)C)C(OC1OCC(O)C(O)C1O)C[C@H]1OC[C@@]31OC(C)=O (some centres undefined)
Ans: 5.68

* * *

Tested on: TK-10 renal
Experiment: NCI tumour cell line growth inhibition, 48 h
measured_property: TGI

Q: What reported TGI corresponds to CCOc1cc(NC(C)=O)ccc1C(=O)NN1C(=O)C(Oc2ccccc2)C1c1ccccc1 (configuration not stated) on TK-10 renal?
Ans: > 100 µM

Q: What reported TGI corresponds to Cc1cc(CNC(=O)OCc2ccccc2)c(C)c2c1Oc1ccccc1O2 on TK-10 renal?
Ans: > 100 µM

Q: What reported TGI corresponds to COc1ccc(C(N)=O)cc1N=NN(C)C on TK-10 renal?
Ans: > 100 µM

Q: What reported TGI corresponds to Nc1ccc(S(=O)(=O)C23CC4CC(CC(C4)C2)C3)cc1 on TK-10 renal?
Ans: > 100 µM

Q: What reported TGI corresponds to O=C(N=C1SCCN1C(=O)C(C(F)(F)F)C(F)(F)F)C(C(F)(F)F)C(F)(F)F on TK-10 renal?
Ans: > 100 µM

Q: What reported TGI corresponds to CC(C)c1ccc(C(=O)Nc2sc3c(c2C#N)CCC(=O)C3)cc1 on TK-10 renal?
Ans: 5.47 µM

Q: What reported TGI corresponds to [Se]=P(c1ccccc1)(c1ccccc1)c1ccc(C(c2ccccc2)=P(c2ccccc2)(c2ccccc2)c2ccccc2)cc1 on TK-10 renal?
Ans: 6.88 µM

Q: What reported TGI corresponds to CCN1C(=S)N(CC)C2C1NC(=S)N2/N=C/C=C/c1ccccc1 (configuration not stated) on TK-10 renal?
Ans: 23.1 µM

Q: What reported TGI corresponds to CC(C)CCC[C@@H](C)[C@H]1CCC2C3CC=C4C[C@@H](Oc5c6ccccc6nc6ccccc56)CCC4C3CCC21 (some centres not stated) on TK-10 renal?
Ans: > 50 µM

Q: What reported TGI corresponds to CN(C(=O)Cc1ccc(Cl)c(Cl)c1)[C@H]1CCCC[C@@H]1[N+]1(C)CCCC1 on TK-10 renal?
Ans: > 100 µM

Q: What reported TGI corresponds to CN(C)C(N)=NC#N on TK-10 renal?
Ans: > 100 µM

Q: What reported TGI corresponds to C(=N\OCc1ccccc1)/c1ncccc1C1OCCO1 on TK-10 renal?
Ans: > 100 µM

Q: What reported TGI corresponds to Cn1c(=O)c2c(nc3n(Cc4ccccc4)c(=O)c(NCCBr)cn23)n(C)c1=O on TK-10 renal?
Ans: 44.5 µM

Q: What reported TGI corresponds to CCOC(=O)/C(=C\c1ccc(N(C)C)cc1)S(=O)(=O)C(F)(F)C(F)(F)C(F)(F)C(F)(F)F on TK-10 renal?
Ans: > 100 µM

Q: What reported TGI corresponds to c1ccc(-c2sc(-c3cccs3)cc2Cc2cccs2)cc1 on TK-10 renal?
Ans: > 10 µM

Q: What reported TGI corresponds to Cn1c(=O)nc2n(-c3cccc(F)c3)c3ccccc3nc-2c1=O on TK-10 renal?
Ans: > 100 µM

Q: What reported TGI corresponds to NC(=O)c1cc(Br)cc(C2CCCCC2)c1O on TK-10 renal?
Ans: 28.1 µM

Q: What reported TGI corresponds to CCCCCCCC(=O)OC(CBr)COC(=O)C(C)(C)C (configuration not stated) on TK-10 renal?
Ans: > 100 µM

Q: What reported TGI corresponds to Cc1sc2nc(-c3cc([N+](=O)[O-])c(Cl)cc3Cl)c(/C=N/N=C(N)N)n2c1C on TK-10 renal?
Ans: 35.7 µM

Q: What reported TGI corresponds to N=C(N=C(N)N)N1CCN(c2ccncc2)CC1 on TK-10 renal?
Ans: > 1000 µM

Q: What reported TGI corresponds to O=C1C[C@@H]2C(COC(=O)c3ccccc3)N(OCc3ccccc3)C[C@@H]2O1 (some centres not stated) on TK-10 renal?
Ans: > 100 µM

Q: What reported TGI corresponds to COC1OC(CO)C(O)C(O)C1Br (configuration not stated) on TK-10 renal?
Ans: > 100 µM
